Just for reference, paper PMC5736629 is where these values come from.

measured target: AmtB–GlnK interaction (Escherichia coli)
Construct: pelB signal peptide (N, cleaved yes); 10x His-tag (N, cleaved yes); made in house; host or cells: AmtB: Escherichia coli C41(DE3), pET15b; stGlnK: Escherichia coli ArcticExpress (DE3) RIL, pET28b
Sequence (P0AC55 whole entry Y51F): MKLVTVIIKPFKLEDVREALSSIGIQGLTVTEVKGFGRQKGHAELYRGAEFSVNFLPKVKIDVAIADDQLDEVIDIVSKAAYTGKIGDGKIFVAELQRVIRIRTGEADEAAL
Sequence (P69681 23-428): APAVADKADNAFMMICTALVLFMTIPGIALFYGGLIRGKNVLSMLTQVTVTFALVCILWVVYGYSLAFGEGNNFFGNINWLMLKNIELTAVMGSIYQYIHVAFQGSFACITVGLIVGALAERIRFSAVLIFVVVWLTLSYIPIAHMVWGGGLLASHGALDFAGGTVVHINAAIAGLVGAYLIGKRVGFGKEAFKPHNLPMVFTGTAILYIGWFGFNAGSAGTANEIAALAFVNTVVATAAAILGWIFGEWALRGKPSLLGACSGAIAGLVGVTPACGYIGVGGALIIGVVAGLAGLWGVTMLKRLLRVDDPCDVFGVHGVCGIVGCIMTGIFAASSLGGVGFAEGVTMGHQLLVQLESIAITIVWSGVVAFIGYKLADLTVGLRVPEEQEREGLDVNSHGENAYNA
assay comment: Native MS lipid titration, GlnK binding to apo or lipid-bound AmtB; coupling factors (allosteric modulation)
study conditions: KD,ALG, GlnK binding AmtB bound to 1 lipid, 50 µM ADP, 298 K
pKd: −log10 of the molar value.
Some compounds, each annotated with its measured pKd.
measured parameter: pKd

compound=CCCCCCCC/C=C\CCCCCCCC(=O)O[C@H](COC(=O)CCCCCCCCCCCCCCC)COP(=O)([O-])OCC[N+](C)(C)C measured_parameter=pKd assay_result=6.46
compound="CCCCCCCCCCCCCC(=O)OC[C@H](COP(=O)(O)OCC(O)CO)OC(=O)CCCCCCCCCCCCC (stereo partly shown)" measured_parameter=pKd assay_result=6.25
compound="CCCCCCCC/C=C/CCCCCCCC(=O)OC[C@H](COP(=O)(O)OCCN)OC(=O)CCCCCCC/C=C/CCCCCCCC [DOPE (trans)]" measured_parameter=pKd assay_result=6.45
compound=CCCCCCCC/C=C\CCCCCCCC(=O)O[C@H](COC(=O)CCCCCCCCCCCCCCCCC)COP(=O)(O)OCCN measured_parameter=pKd assay_result=6.32
